Origin of the recorded values: patent US20210101970A1

- target: T1, human CXCR5 (human, UniProt P32302 1-372)
- T1 sequence: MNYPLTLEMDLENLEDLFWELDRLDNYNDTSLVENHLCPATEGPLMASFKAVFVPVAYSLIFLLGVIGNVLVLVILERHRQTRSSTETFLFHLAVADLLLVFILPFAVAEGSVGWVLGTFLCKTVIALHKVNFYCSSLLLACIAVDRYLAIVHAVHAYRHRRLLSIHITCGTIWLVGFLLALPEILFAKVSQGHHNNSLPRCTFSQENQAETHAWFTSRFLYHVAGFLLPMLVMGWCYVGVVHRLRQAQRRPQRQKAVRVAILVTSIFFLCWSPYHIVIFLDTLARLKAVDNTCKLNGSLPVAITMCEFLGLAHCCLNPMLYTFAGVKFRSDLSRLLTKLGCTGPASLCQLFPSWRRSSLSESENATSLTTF
- assay_overview: cell-based or functional assay
Catalogue of ADCC Activity Average EC50, Human Tfh Cells values
parameter: ADCC Activity Average EC50, Human Tfh Cells (pM)

# binder, measurement
measured = [
    ("Afucosyl Chimeric 11G2 (antibody, human IgG1, kappa, V domains shown, afucosylated Fc glycan (Asn297), made in Potelligent CHOK1SV cells) VH: EVKLVESGGGLVQPGGSLRLSCATSGFTFTDFYMSWVRQPPGRALEWLGFIRNKANGYTTEYSASVKGRFTISRDNSQSILYLQMNTLRAGDSATYYCVRVYGSTLHYWGQGTILTVSS VL: DVVVTQSPDSLAVSLGQRATISCRASESVEYHGTSLMHWYQQKPGQPPKLLIYAASNVESGVPARFSGSGSGTDFSLNIHPVEEGDIAMYFCQQSRKVPWTFGGGTKLEIKR", 0.07),
    ("Humanized 11G2 154/155 (antibody, human IgG1, kappa, V domains shown, fucosylated human IgG1/kappa; also called h11G2 VL XC154/VH XC155) VH: EVQLVESGGGLVQPGGSLRLSCAASGFTFTDFYMSWVRQAPGKGLEWVGFIRNKANGYTTEYSASVKGRFTISRDNAKNSLYLQMNSLRAEDTAVYYCARVYGSTLHYWGQGTLVTVSS VL: DIQMTQSPSSLSASVGDRVTITCRASESVEYHGTSLMHWYQQKPGKAPKLLIYAASNVESGVPSRFSGSGSGTDFTLTISSLQPEDFATYYCQQSRKVPWTFGQGTKVEIKR", 0.77),
    ("Chimeric 11G2 (antibody, human IgG1, kappa, V domains shown, mouse V regions on human IgG1/kappa; also called 11G2 (chimeric)) VH: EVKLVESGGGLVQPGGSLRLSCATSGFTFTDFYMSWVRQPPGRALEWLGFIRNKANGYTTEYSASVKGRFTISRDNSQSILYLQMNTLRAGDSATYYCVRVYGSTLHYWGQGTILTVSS VL: DVVVTQSPDSLAVSLGQRATISCRASESVEYHGTSLMHWYQQKPGQPPKLLIYAASNVESGVPARFSGSGSGTDFSLNIHPVEEGDIAMYFCQQSRKVPWTFGGGTKLEIKR", 1.55),
    ("Afucosyl humanized 11G2 154/155 (antibody, human IgG1, kappa, V domains shown, afucosylated Fc glycan (Asn297), also called afucosyl h11G2 XC154/XC155; afucosylated h11G2 VL XC154/VH XC155) VH: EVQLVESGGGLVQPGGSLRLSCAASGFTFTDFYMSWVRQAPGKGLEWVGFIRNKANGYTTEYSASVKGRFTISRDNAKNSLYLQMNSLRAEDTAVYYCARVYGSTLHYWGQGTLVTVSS VL: DIQMTQSPSSLSASVGDRVTITCRASESVEYHGTSLMHWYQQKPGKAPKLLIYAASNVESGVPSRFSGSGSGTDFTLTISSLQPEDFATYYCQQSRKVPWTFGQGTKVEIKR", 0.11),
]
